# METHOD: Pharmacokinetics of HLJDD components in rat plasma after oral administration of HLJDD (LC-QqQ-MS, non-compartmental)
# Type: in vivo, Sprague-Dawley rats
# CONDITION_DESCRIPTION: male, Sprague-Dawley, rat, in vivo, po, 3.5 g/kg, normal rats (group B), oral HLJDD extract, crude material 3.5 g/kg, plasma, n = 6; read-out: CL/F (converted)
ENDPOINT: CL/F (L/h/kg)
Numeric answer only, unit L/h/kg assumed.

Task: Looking for the measured CL/F of COC(=O)C1=CO[C@@H](O[C@@H]2O[C@H](CO)[C@@H](O)[C@H](O)[C@H]2O)[C@@H]2C(CO)=CC[C@H]12 [geniposide] , can you help?
Output: 412

====

# METHOD: Pharmacokinetics of HLJDD components in rat plasma after oral administration of HLJDD (LC-QqQ-MS, non-compartmental)
# Type: in vivo, Sprague-Dawley rats
# CONDITION_DESCRIPTION: male, Sprague-Dawley, rat, plasma, po, 3.5 g/kg, normal rats (group B), oral HLJDD extract, crude material 3.5 g/kg, plasma, n = 6
# Method: The rats were acclimatized to the facilities for 5 days and screened via the continuous determination of the rectal temperature for two days. […] The control group G1 was injected with the same volume of physiological saline. […] Pharmacokinetic parameters of the determined compounds were processed by the non-compartmental method using Phoenix Winnonlin software (Pharsight Corporation, USA). […] The mean residence time (MRT) was determined as AUMC/AUC. […]
Listing of entries alongside the reported AUC(0-t).
Number only, in ng·h/mL; omit the unit.

Below: 3 compounds and their reported AUC(0-t).
- COc1ccc2cc3[n+](cc2c1OC)CCc1cc2c(cc1-3)OCO2: 1.3
- COc1c(O)cc(O)c2c(=O)cc(-c3ccccc3)oc12: 7.2
- COc1c(O)cc2oc(-c3ccccc3)cc(=O)c2c1O: 2.3

Next compound, please.
Task: What value of measured AUC(0-t) is listed for O=C(O)[C@H]1O[C@@H](Oc2cc3oc(-c4ccccc4)cc(=O)c3c(O)c2O)[C@H](O)[C@@H](O)[C@@H]1O ?
Output: 7880

====

# METHOD: Pharmacokinetics of HLJDD components in rat plasma after oral administration of HLJDD (LC-QqQ-MS, non-compartmental)
# Format: in vivo, Sprague-Dawley rats
# CONDITION_DESCRIPTION: male, Sprague-Dawley, rat, in vivo, po, 3.5 g/kg, normal rats (group B), oral HLJDD extract, crude material 3.5 g/kg, plasma, n = 6; read-out: Vz/F
ENDPOINT: Vd/F
Hi, when you answer, please include the unit after the number. Thanks!

Task: Sample COC(=O)C1=CO[C@@H](O[C@@H]2O[C@H](CO)[C@@H](O)[C@H](O)[C@H]2O)[C@@H]2C(CO)=CC[C@H]12 [geniposide] — what was its Vd/F?
Output: 235 L/kg

====

# METHOD: Pharmacokinetics of HLJDD components in rat plasma after oral administration of HLJDD (LC-QqQ-MS, non-compartmental)
# Type: in vivo, Sprague-Dawley rats
# CONDITION_DESCRIPTION: normal rats (group B), oral HLJDD extract, crude material 3.5 g/kg, plasma, n = 6
Listed compounds paired with reported Cmax1
Reply numerically in ng/mL, unit not repeated.

The examples below pair each entry with its known result.
- COc1c(O[C@@H]2O[C@H](C(=O)O)[C@@H](O)[C@H](O)[C@H]2O)cc(O)c2c(=O)cc(-c3ccccc3)oc12 [wogonoside]: 492.9
- O=C(O)[C@H]1O[C@@H](Oc2cc3oc(-c4ccccc4)cc(=O)c3c(O)c2O)[C@H](O)[C@@H](O)[C@@H]1O [baicalin]: 1828.8

Task: Returns the measured Cmax1 for the input compound. Input: COC(=O)C1=CO[C@@H](O[C@@H]2O[C@H](CO)[C@@H](O)[C@H](O)[C@H]2O)[C@@H]2C(CO)=CC[C@H]12 [geniposide]
Output: 171.6

Task: Dear colleague, I am looking for the recorded Cmax1 of the following compound: COc1ccc2cc3[n+](cc2c1OC)CCc1cc2c(cc1-3)OCO2 [berberine]
Output: 0.4

Task: Could you share which Cmax1 value was measured for COc1c(O)cc(O)c2c(=O)cc(-c3ccccc3)oc12 [wogonin] ?
Output: 2.2

Task: Returns the measured Cmax1 for the input compound. Input: COc1c(O)cc2oc(-c3ccccc3)cc(=O)c2c1O [oroxylin A]
Output: 1.5

Task: Please look up its Cmax1: COc1ccc2c(c1O)-c1c(O)c(OC)cc3c1[C@H](C2)[N+](C)(C)CC3 [magnolflorine]
Output: 6.5

Task: Need Cmax1, item COc1c(O[C@@H]2O[C@H](C(=O)O)[C@@H](O)[C@H](O)[C@H]2O)cc2oc(-c3ccccc3)cc(=O)c2c1O [oroxylin A-7-O-glucuronide]
Output: 106.9

====

AUC(0-inf) values, listed per item
# METHOD: Pharmacokinetics of HLJDD components in rat plasma after oral administration of HLJDD (LC-QqQ-MS, non-compartmental)
# Assay type: in vivo, Sprague-Dawley rats
# CONDITION_DESCRIPTION: male, Sprague-Dawley, rat, plasma, po, 3.5 g/kg, inflamed rats (group M), oral HLJDD extract, crude material 3.5 g/kg, plasma, n = 6
Give just the numeric value; ng·h/mL need not be written.

// below: answered compounds
* O=C(O)[C@H]1O[C@@H](Oc2cc3oc(-c4ccccc4)cc(=O)c3c(O)c2O)[C@H](O)[C@@H](O)[C@@H]1O | 16800
* COc1c(O)cc(O)c2c(=O)cc(-c3ccccc3)oc12 | 39.2
* COc1c(O)cc2oc(-c3ccccc3)cc(=O)c2c1O | 24.6

Next compound, please.
Task: For the compound COc1ccc2cc3[n+](cc2c1OC)CCc1cc2c(cc1-3)OCO2 , what AUC(0-inf) is on record?
Output: 3.4

====

# METHOD: Pharmacokinetics of HLJDD components in rat plasma after oral administration of HLJDD (LC-QqQ-MS, non-compartmental)
# Assay type: in vivo, Sprague-Dawley rats
# CONDITION_DESCRIPTION: male, Sprague-Dawley, rat, in vivo, po, 3.5 g/kg, inflamed rats (group M), oral HLJDD extract, crude material 3.5 g/kg, plasma, n = 6; read-out: Vz/F
ENDPOINT: Vd/F (L/kg)
Numbers only; they are read as L/kg.

Task: Any idea what its Vd/F is? The compound is COC(=O)C1=CO[C@@H](O[C@@H]2O[C@H](CO)[C@@H](O)[C@H](O)[C@H]2O)[C@@H]2C(CO)=CC[C@H]12 [geniposide]
Output: 372

====

# METHOD: Pharmacokinetics of HLJDD components in rat plasma after oral administration of HLJDD (LC-QqQ-MS, non-compartmental)
# Format: in vivo, Sprague-Dawley rats
# CONDITION_DESCRIPTION: male, Sprague-Dawley, rat, plasma, po, 3.5 g/kg, inflamed rats (group M), oral HLJDD extract, crude material 3.5 g/kg, plasma, n = 6; read-out: CL/F (converted)
ENDPOINT: CL/F
Answers without a unit are incomplete; give the number and then its unit.

* O=C(O)[C@H]1O[C@@H](Oc2cc3oc(-c4ccccc4)cc(=O)c3c(O)c2O)[C@H](O)[C@@H](O)[C@@H]1O [baicalin] | 145 mL/min/kg
* COc1c(O)cc2oc(-c3ccccc3)cc(=O)c2c1O [oroxylin A] | 1790 mL/min/kg

Lab note: next compound to report on.
Task: Suppose we examine the compound COc1c(O)cc(O)c2c(=O)cc(-c3ccccc3)oc12 [wogonin] ; what CL/F value has been reported?
Output: 2740 mL/min/kg

====

# METHOD: Pharmacokinetics of HLJDD components in rat plasma after oral administration of HLJDD (LC-QqQ-MS, non-compartmental)
# Assay type: in vivo, Sprague-Dawley rats
# CONDITION_DESCRIPTION: male, Sprague-Dawley, rat, in vivo, po, 3.5 g/kg, normal rats (group B), oral HLJDD extract, crude material 3.5 g/kg, plasma, n = 6
# Procedure: The rats were acclimatized to the facilities for 5 days and screened via the continuous determination of the rectal temperature for two days. […] The control group G1 was injected with the same volume of physiological saline. […] Pharmacokinetic parameters of the determined compounds were processed by the non-compartmental method using Phoenix Winnonlin software (Pharsight Corporation, USA). […] The mean residence time (MRT) was determined as AUMC/AUC. […]
ENDPOINT: AUC(0-t) (ng·h/mL)
Give the number; ng·h/mL is assumed, so skip it.

Task: // returns reported AUC(0-t) for input COC(=O)C1=CO[C@@H](O[C@@H]2O[C@H](CO)[C@@H](O)[C@H](O)[C@H]2O)[C@@H]2C(CO)=CC[C@H]12 [geniposide]
Output: 217

====

# METHOD: Pharmacokinetics of HLJDD components in rat plasma after oral administration of HLJDD (LC-QqQ-MS, non-compartmental)
# Assay type: in vivo, Sprague-Dawley rats
# CONDITION_DESCRIPTION: inflamed rats (group M), oral HLJDD extract, crude material 3.5 g/kg, plasma, n = 6
# strict inequality: AUMClast < 400 h*h*ng/ml yields MET, everything else yields NOT MET

Would you please look over these solved cases?
• COc1ccc2c(c1O)-c1c(O)c(OC)cc3c1[C@H](C2)[N+](C)(C)CC3 [magnolflorine] = MET
• COc1c(O)cc(O)c2c(=O)cc(-c3ccccc3)oc12 [wogonin] = NOT MET
• COc1ccc2cc3[n+](cc2c1OC)CCc1cc2c(cc1-3)OCO2 [berberine] = MET
• COc1c(O)cc2oc(-c3ccccc3)cc(=O)c2c1O [oroxylin A] = MET
• COc1c(O[C@@H]2O[C@H](C(=O)O)[C@@H](O)[C@H](O)[C@H]2O)cc(O)c2c(=O)cc(-c3ccccc3)oc12 [wogonoside] = NOT MET

Task: Quick check: AUMClast of O=C(O)[C@H]1O[C@@H](Oc2cc3oc(-c4ccccc4)cc(=O)c3c(O)c2O)[C@H](O)[C@@H](O)[C@@H]1O [baicalin] under 400 h*h*ng/ml?
Output: NOT MET

Task: Report whether reported AUMClast is lower than 400 h*h*ng/ml (strictly) for COC(=O)C1=CO[C@@H](O[C@@H]2O[C@H](CO)[C@@H](O)[C@H](O)[C@H]2O)[C@@H]2C(CO)=CC[C@H]12 [geniposide]
Output: NOT MET

Task: I'd appreciate it if you could check whether COc1c(O[C@@H]2O[C@H](C(=O)O)[C@@H](O)[C@H](O)[C@H]2O)cc2oc(-c3ccccc3)cc(=O)c2c1O [oroxylin A-7-O-glucuronide] has AUMClast smaller than 400 h*h*ng/ml.
Output: NOT MET
